# METHOD: Volume of distribution in Sprague-Dawley rat at 1 mg/kg, iv administered in 80% PEG200 and 5 mg/kg, po administered in 0.5% methocel as ball-milled particles
# Type: ADME, organism-based
# CONDITION_DETAILS: in vivo

RECORD_SMILES	Vd, L/kg
N#Cc1cc(Cl)cc(Oc2c(C(F)(F)F)ccn(Cc3n[nH]c4ncccc34)c2=O)c1	8.8

---

# METHOD: Inhibition of HIV wild-type reverse transcriptase by electrochemiluminescence assay
# Design: species or system Human immunodeficiency virus
hey, just use y if measured IC50 is less than 5 nM, otherwise n

COMPOUND	DISCRETE_LABEL
N#Cc1cc(Cl)cc(Oc2c(Br)ccn(Cc3n[nH]c4ncccc34)c2=O)c1	y
N#Cc1cc(Cl)cc(Oc2c(C(F)(F)F)ccn(Cc3n[nH]c4cncc(F)c34)c2=O)c1	y
N#Cc1cc(Cl)cc(Oc2c(C(F)(F)F)ccn(Cc3ccc4ccccc4n3)c2=O)c1	n
Cn1nccc1Cn1ccc(C(F)(F)F)c(Oc2cc(Cl)cc(C#N)c2)c1=O	n
N#Cc1cc(Cl)cc(Oc2c(C(F)(F)F)ccn(Cc3n[nH]c4nc(NC5CCS(=O)(=O)C5)ccc34)c2=O)c1 (centres undefined)	n
N#Cc1cc(Cl)cc(Oc2c(C(F)(F)F)ccn(Cc3n[nH]c4ccccc34)c2=O)c1	y
N#Cc1cc(Cl)cc(Oc2c(C(F)(F)F)ccn(Cc3n[nH]c4cnccc34)c2=O)c1	n
Cn1ncnc1Cn1ccc(C(F)(F)F)c(Oc2cc(Cl)cc(C#N)c2)c1=O	n
